molecules and their reported Emax
# tested.system: D3 DAR (Homo sapiens, UniProt P35462)
# Sequence (P35462 whole entry): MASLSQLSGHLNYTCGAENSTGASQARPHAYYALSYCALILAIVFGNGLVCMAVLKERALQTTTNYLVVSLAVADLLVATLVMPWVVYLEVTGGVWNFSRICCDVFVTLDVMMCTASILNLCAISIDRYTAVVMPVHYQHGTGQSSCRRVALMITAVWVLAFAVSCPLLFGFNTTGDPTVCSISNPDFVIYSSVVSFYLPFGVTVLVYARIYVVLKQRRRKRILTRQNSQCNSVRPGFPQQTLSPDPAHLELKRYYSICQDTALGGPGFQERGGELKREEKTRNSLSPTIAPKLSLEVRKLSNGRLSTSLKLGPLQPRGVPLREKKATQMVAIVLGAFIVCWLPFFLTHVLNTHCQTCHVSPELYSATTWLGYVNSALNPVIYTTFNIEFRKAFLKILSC
# assay.procedure: Go BRET activation assay, D3 DAR
# Assay type: cell-based
# condition.parameters: 5 min; EC80 DA (30 nM); read-out: D3 Go BRET Imax

Illustrative cases are given below, each with its answer.
In [3]: df
Out[3]:
                           substance_smiles      result
0  Cc1[nH]c(C)c(S(=O)(=O)Nc2ccc(C(F)(F)F)c(Cl)c2)c1C(=O)N1CC(F)(F)C(F)(F)C1      > 100%
1  Cc1[nH]c(C)c(S(=O)(=O)Nc2cc(Cl)cc(C(F)(F)F)c2)c1C(=O)N1CCC(F)(F)C1      > 100%
2  Cc1[nH]c(C)c(S(=O)(=O)Nc2ccc(C(F)(F)F)c(Br)c2)c1C(=O)N1CCCC1  80 to 100%
3  Cc1ccc(NS(=O)(=O)c2c(C)[nH]c(C)c2C(=O)N2CCCC2)cc1F      > 100%

Which Emax value is on record for `Cc1[nH]c(C)c(S(=O)(=O)Nc2ccc(F)c(Cl)c2)c1C(=O)N1CCCC1` ?
> 100%

Cool, now `Cc1[nH]c(C)c(S(=O)(=O)Nc2ccc(S(F)(F)(F)(F)F)cc2)c1C(=O)N1CCC(F)(F)C1`
80 to 100%

All figures here come from patent US20240336604A1.
